The measured values listed here are drawn from the kinase profiling compilation of Christmann-Franck et al. (2016).

Quick reference: kinase still bound, per cent of control of the listed items.
target: FLT4 (human) (UniProt P35916); test: KINOMEscan competition binding; details: compound 10.0 µM
Sequence (P35916 whole entry, looked up): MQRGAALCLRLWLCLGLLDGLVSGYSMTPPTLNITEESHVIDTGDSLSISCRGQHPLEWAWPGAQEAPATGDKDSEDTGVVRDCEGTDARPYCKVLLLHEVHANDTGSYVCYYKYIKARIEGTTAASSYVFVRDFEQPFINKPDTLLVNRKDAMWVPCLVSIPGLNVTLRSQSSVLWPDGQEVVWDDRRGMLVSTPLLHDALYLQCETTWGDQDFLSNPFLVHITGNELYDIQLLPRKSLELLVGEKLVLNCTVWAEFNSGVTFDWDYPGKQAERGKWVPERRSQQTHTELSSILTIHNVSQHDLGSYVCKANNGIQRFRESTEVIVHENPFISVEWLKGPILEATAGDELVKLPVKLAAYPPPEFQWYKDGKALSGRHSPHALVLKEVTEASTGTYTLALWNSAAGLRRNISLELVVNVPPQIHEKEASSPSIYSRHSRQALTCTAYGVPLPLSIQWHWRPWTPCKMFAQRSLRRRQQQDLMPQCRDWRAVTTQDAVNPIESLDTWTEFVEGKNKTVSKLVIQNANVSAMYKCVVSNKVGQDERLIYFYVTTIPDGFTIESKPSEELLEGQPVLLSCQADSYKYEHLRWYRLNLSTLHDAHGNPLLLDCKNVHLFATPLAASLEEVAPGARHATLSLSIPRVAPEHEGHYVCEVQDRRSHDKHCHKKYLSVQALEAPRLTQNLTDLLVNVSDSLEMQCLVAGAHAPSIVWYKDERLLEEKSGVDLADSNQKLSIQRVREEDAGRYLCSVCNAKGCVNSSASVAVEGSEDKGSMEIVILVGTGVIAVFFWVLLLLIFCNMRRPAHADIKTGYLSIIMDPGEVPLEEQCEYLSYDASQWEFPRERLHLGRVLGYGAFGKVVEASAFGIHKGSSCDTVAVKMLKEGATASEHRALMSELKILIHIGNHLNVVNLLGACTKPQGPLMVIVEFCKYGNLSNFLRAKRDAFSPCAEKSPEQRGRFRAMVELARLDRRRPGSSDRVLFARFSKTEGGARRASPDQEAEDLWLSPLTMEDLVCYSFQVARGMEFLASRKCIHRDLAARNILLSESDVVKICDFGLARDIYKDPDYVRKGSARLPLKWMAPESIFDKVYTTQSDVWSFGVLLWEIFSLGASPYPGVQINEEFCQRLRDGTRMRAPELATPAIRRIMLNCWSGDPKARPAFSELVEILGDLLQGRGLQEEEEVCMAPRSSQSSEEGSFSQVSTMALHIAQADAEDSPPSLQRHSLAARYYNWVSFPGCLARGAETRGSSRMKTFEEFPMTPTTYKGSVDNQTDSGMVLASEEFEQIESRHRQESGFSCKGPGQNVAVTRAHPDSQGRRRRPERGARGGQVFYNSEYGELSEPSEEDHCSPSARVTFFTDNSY
In your response, put the unit directly after the numeric value.

Q: Entry `O=C1NC(=O)/C(=C/c2c[nH]c(=O)c(-c3ccc(N4CCNCC4)nc3)c2)S1` needs its kinase still bound, per cent of control filled in; supply it.
A: 90%

Q: Look up and state reported kinase still bound, per cent of control for `COc1cc(N2CCN(C)CC2)ccc1Nc1ncc2c(n1)N(C)c1ccccc1N(C)C2=O`
A: 100%

Q: Dear colleague, please send me the reported kinase still bound, per cent of control for `CS(=O)(=O)Nc1ccc(-c2cncc(/C=C3\SC(=N)NC3=O)c2)cc1` when you can.
A: 28%

Q: Please look at this molecule and report its kinase still bound, per cent of control: `COc1cc(N2CCN(C)CC2)ccc1Nc1ncc2c(n1)Nc1ccccc1NC2=O`
A: 10%

----------
target: UniProt:P42684; test: KINOMEscan competition binding; settings: compound 10.0 µM
Sequence (P42684 whole entry, looked up): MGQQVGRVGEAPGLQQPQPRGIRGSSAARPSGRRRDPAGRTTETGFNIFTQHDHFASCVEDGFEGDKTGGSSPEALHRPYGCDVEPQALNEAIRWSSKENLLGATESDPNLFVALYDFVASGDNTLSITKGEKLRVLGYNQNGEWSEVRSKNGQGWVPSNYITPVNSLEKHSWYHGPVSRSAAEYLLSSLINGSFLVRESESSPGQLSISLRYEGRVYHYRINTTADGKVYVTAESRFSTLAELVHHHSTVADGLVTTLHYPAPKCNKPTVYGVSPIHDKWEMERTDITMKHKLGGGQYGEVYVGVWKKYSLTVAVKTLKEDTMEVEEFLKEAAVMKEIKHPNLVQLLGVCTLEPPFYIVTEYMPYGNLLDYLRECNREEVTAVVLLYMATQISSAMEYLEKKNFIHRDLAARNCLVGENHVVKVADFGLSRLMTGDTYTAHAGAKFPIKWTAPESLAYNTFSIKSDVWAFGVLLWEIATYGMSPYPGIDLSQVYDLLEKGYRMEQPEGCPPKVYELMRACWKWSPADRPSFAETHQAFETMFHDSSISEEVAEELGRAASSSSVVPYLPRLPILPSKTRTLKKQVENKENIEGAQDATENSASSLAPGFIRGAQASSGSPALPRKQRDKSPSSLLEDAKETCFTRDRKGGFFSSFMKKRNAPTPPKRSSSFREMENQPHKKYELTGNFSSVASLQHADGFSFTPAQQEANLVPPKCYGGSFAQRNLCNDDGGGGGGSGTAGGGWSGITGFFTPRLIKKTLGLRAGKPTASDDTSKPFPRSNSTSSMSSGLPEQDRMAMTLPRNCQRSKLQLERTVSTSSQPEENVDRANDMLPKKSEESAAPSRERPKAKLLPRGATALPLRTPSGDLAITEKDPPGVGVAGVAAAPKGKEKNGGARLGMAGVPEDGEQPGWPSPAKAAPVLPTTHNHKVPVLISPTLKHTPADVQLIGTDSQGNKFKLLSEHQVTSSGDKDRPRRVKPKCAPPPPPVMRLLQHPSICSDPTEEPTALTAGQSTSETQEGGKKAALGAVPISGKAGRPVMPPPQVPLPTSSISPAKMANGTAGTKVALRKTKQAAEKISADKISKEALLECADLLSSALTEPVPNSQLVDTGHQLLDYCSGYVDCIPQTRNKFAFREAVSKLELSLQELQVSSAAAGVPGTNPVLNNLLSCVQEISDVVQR
property: kinase still bound, per cent of control (%)
The reply should contain only the number, in %.

Q: Give the measured kinase still bound, per cent of control for `COc1cc(N2CCN(C)CC2)ccc1Nc1ncc2c(n1)Nc1ccccc1NC2=O`
A: 79

Q: Return reported kinase still bound, per cent of control. Input compound: `COc1cc(N2CCN(C)CC2)ccc1Nc1ncc2c(n1)N(C)c1ccccc1N(C)C2=O`
A: 98

----------
Below is a list of entries, each paired with its recorded kinase still bound, per cent of control value.
target: UniProtKB O75914; test: KINOMEscan competition binding; conditions: compound 10.0 µM
Sequence (O75914 whole entry, looked up): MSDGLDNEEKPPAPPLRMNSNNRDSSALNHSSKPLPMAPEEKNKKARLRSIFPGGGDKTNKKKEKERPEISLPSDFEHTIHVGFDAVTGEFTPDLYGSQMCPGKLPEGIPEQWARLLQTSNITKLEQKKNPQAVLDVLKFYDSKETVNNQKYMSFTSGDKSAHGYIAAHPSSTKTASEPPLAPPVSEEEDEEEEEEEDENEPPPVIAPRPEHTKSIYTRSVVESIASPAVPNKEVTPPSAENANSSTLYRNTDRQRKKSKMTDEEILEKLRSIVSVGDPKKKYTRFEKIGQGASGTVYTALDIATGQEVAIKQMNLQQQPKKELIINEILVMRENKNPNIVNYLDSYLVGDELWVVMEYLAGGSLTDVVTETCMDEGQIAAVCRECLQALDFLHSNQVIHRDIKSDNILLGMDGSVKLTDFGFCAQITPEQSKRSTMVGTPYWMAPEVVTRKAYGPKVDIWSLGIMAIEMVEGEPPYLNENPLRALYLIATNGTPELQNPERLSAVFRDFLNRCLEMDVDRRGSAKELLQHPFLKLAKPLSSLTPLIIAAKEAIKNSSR
Expressed in %, but write only the number.

Previously resolved entries follow.
- cpd-smiles: "COc1cc(N2CCN(C)CC2)ccc1Nc1ncc2c(n1)N(C)c1sccc1C(=O)N2C"
  experimental-value: 100
- cpd-smiles: "CN1CCN(c2ccc(C(=O)Nc3ncc4c(n3)N(C)c3ccccc3C(=O)N4C)cc2)CC1"
  experimental-value: 79
- cpd-smiles: "COc1cc(N2CCN(C)CC2)ccc1Nc1ncc2c(n1)Nc1ccccc1NC2=O"
  experimental-value: 82
- cpd-smiles: "COc1cc(N2CCC(O)CC2)ccc1Nc1ncc2c(n1)N1CCc3cccc(c31)C(=O)N2C"
  experimental-value: 58

With those in mind, consider the next compound.
Q: Output kinase still bound, per cent of control of `O=C1NC(=O)/C(=C/c2c[nH]c(=O)c(-c3ccc(N4CCNCC4)nc3)c2)S1`
A: 86

----------
// reported kinase still bound, per cent of control for each item listed
biological target: UniProtKB Q9UIK4; assay: KINOMEscan competition binding; details: compound 10.0 µM
Sequence (Q9UIK4 whole entry, looked up): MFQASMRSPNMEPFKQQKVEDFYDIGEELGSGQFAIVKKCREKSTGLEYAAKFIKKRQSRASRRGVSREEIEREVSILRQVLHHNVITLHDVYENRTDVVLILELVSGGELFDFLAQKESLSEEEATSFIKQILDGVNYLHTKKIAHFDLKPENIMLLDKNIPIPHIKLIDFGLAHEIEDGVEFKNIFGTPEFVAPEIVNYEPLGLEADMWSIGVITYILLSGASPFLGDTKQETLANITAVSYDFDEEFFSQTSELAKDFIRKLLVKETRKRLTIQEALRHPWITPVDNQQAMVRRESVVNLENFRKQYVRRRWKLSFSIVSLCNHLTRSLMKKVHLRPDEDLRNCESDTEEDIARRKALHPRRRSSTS
Give the value in % but do not write % after it.

The examples below pair each entry with its known result.
- compound: "O=C1NC(=O)/C(=C/c2ccc(-c3ccc(F)cc3O)o2)S1"
  property: "kinase still bound, per cent of control"
  experimental-value: 12
- compound: "NS(=O)(=O)c1ccc(-c2ccc(/C=C3\\SC(=O)NC3=O)o2)cc1"
  property: "kinase still bound, per cent of control"
  experimental-value: 6.4

Kindly review the next compound as well.
Q: Please give measured kinase still bound, per cent of control of the following entry: `O=C1NC(=O)/C(=C/c2c[nH]c(=O)c(-c3ccc(N4CCNCC4)nc3)c2)S1`
A: 0.5

----------
target: JAK1 JH2 pseudokinase (human); experiment: KINOMEscan competition binding; settings: compound 10.0 µM
Classify: T when kinase still bound, per cent of control is strictly less than 30%; F when kinase still bound, per cent of control is not.

The following compounds have reported results that may help.
- compound: "CN1C(=O)c2ccccc2N(C)c2nc(NS(=O)(=O)c3ccc(N)cc3)ncc21"
  target-or-system: "JAK1 JH2 pseudokinase (human)"
  assigned-label: "F"
- compound: "COc1cc(N2CCN(C)CC2)ccc1Nc1ncc2c(n1)N(C)c1sccc1C(=O)N2C"
  target-or-system: "JAK1 JH2 pseudokinase (human)"
  assigned-label: "F"
- compound: "CN1C(=O)c2ccccc2N(C)c2nc(Nc3ccc(N4CCC(O)CC4)cc3)ncc21"
  target-or-system: "JAK1 JH2 pseudokinase (human)"
  assigned-label: "T"
- compound: "COc1cc(N2CCN(C)CC2)ccc1Nc1ncc2c(n1)Nc1ccccc1NC2=O"
  target-or-system: "JAK1 JH2 pseudokinase (human)"
  assigned-label: "F"
- compound: "O=C1NC(=O)/C(=C/c2c[nH]c(=O)c(-c3ccc(N4CCNCC4)nc3)c2)S1"
  target-or-system: "JAK1 JH2 pseudokinase (human)"
  assigned-label: "F"
- compound: "COc1cc(C(=O)NC2CCN(C)CC2)ccc1Nc1ncc2c(n1)N(C1CCCC1)C(C)CC(=O)N2C (configuration not stated)"
  target-or-system: "JAK1 JH2 pseudokinase (human)"
  assigned-label: "T"
- compound: "N=C1NC(=O)/C(=C/c2ccc(-c3ccc(C(=O)Nc4ccc(N5CCNCC5)cc4)cc3O)o2)S1"
  target-or-system: "JAK1 JH2 pseudokinase (human)"
  assigned-label: "T"
- compound: "COc1cc(N2CCN(C)CC2)ccc1Nc1ncc2c(n1)N(C)c1ccccc1N(C)C2=O"
  target-or-system: "JAK1 JH2 pseudokinase (human)"
  assigned-label: "F"
- compound: "N=C1NC(=O)/C(=C/c2ccc(-c3cnc4ccccc4c3)o2)S1"
  target-or-system: "JAK1 JH2 pseudokinase (human)"
  assigned-label: "T"
- compound: "CN1C(=O)[C@H]2CCC[C@H]2N(C2CCCC2)c2nc(Nc3ccc(C(N)=O)cc3)ncc21"
  target-or-system: "JAK1 JH2 pseudokinase (human)"
  assigned-label: "T"

Q: Please check: kinase still bound, per cent of control for `N=C1NC(=O)/C(=C/c2ccc(-c3ccc4c(C(=O)Nc5ccc(N6CCNCC6)cc5)cccc4c3)o2)S1` , strictly under 30% or not?
A: F

Q: I wonder whether `CN1CCN(c2ccc(C(=O)Nc3ncc4c(n3)N(C)c3ccccc3C(=O)N4C)cc2)CC1` has kinase still bound, per cent of control below 30%. Can you tell?
A: F

Q: kinase still bound, per cent of control under 30%? Item: `N=C1NC(=O)/C(=C/c2ccc(-c3cncc4ccccc34)o2)S1`
A: T

Q: Regarding `O=C1NC(=S)S/C1=C\c1ccc(-c2cncc3ccccc23)o1` , kindly confirm whether its kinase still bound, per cent of control is beneath 30%.
A: T

Q: I wonder whether `N=C1NC(=O)/C(=C/c2ccc(-c3csc4ccccc34)o2)S1` has kinase still bound, per cent of control below 30%. Can you tell?
A: T

Q: Answer whether the compound `COc1cc(N2CCC(O)CC2)ccc1Nc1ncc2c(n1)N1CCc3cccc(c31)C(=O)N2C` has kinase still bound, per cent of control strictly less than 30%
A: F
